Assay: chemical genetic growth profiling, strain panel (AID 1159580);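 note: tested at 20 µM; growth read once vehicle control cultures reached saturation at 30 °C; 1 = growth at the plate median or of vehicle wells; lower values mean less growth of the strain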
Details: S. cerevisiae deletion strains, growth OD, locus YKR026C, strain gcn3, active compounds read low
The campaign covered roughly 5,500 compounds. About 2,000 (36%) were called active. About 18% were inconclusive and are not listed. The list shows a part of the results.
Decision: normalized growth beneath 1 gives yes; normalized growth meeting or exceeding 1 gives no.

sample_smiles=CN1CCC(=C2c3ccccc3CCc3sccc32)CC1 assigned_class=yes

# next compound below
Query: # check: normalized growth < 1 for CN1CCC(=C2c3ccccc3Sc3ccccc32)CC1
Response: no

====

Assay: chemical genetic growth profiling, strain panel (AID 1159580);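 note: tested at 20 µM; growth read once vehicle control cultures reached saturation at 30 °C; 1 = growth at the plate median or of vehicle wells; lower values mean less growth of the strain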
Settings: S. cerevisiae deletion strains, growth OD, locus YJL115W, strain asf1, active compounds read low
Hit rate of the full screen: of about 5,500 compounds, about 2,000 (36%) were called active. Roughly 18% stayed inconclusive and do not appear here. Some of the results follow.
Each item that follows carries a reported normalized growth.
I only need the number, thanks.

Solved entries (count: 6):
compound=COc1ccc2cc([C@H](C)C(=O)O)ccc2c1 assay_value=0.96
compound="C[C@]12CCC(=O)C=C1CCC1C2CC[C@@]2(C)C1CC[C@@H]2O (some centres not stated)" assay_value=0.994
compound=O=C(O)c1cc2ccccc2[nH]1 assay_value=0.975
compound=O=C(O)c1cc2ccccc2c(Cc2c(O)c(C(=O)O)cc3ccccc23)c1O assay_value=1
compound="COc1ccc(OC)c(C(O)C(C)N)c1 (configuration not stated)" assay_value=0.99
compound="CCC(=O)O[C@H]1CCC2C3CCC4=CC(=O)CC[C@]4(C)C3CC[C@@]21C (some centres not stated)" assay_value=0.945

Query: Given the entry CC(C)c1c(C(=O)c2ccccc2)c(-c2ccccc2)c(-c2ccc(F)cc2)n1CC[C@@H](O)C[C@@H](O)CC(=O)O , report its measured normalized growth.
Response: 0.953
